tested on: giant foxtail; assay: Test C pre-/postemergence herbicide test; type: in vivo, Setaria faberi; settings: 125 g ai/ha; scale 0 (no effect) to 100 (complete control); visual, 12 to 14 days; preemergence
Entries and their Plant response rating, Foxtail, Giant

>  <compound>
CCN1CCc2c(NC(=O)c3cc(C(C)(C)C)nn3CC)cccc2C1=O

>  <system-name>
giant foxtail

>  <Plant response rating, Foxtail, Giant>
5

$$$$
>  <compound>
CCOC(=O)c1cc(NC(=O)c2cc(C(C)(C)C)nn2CC)ccc1OCC

>  <system-name>
giant foxtail

>  <Plant response rating, Foxtail, Giant>
100

$$$$
>  <compound>
C=CCNC(=O)c1cccc(NC(=O)c2cc(C(C)(C)C)nn2C)n1

>  <system-name>
giant foxtail

>  <Plant response rating, Foxtail, Giant>
10

$$$$
>  <compound>
C=CCn1nc(C(C)(C)C)cc1C(=O)Nc1cccc(C(=O)NCC)c1

>  <system-name>
giant foxtail

>  <Plant response rating, Foxtail, Giant>
85

$$$$
>  <compound>
CCN(CC)C(=O)c1ccnc(NC(=O)c2cc(C(C)(C)C)nn2CC)c1

>  <system-name>
giant foxtail

>  <Plant response rating, Foxtail, Giant>
0

$$$$
>  <compound>
CCn1nc(C(C)(C)C)cc1C(=O)Nc1cccc(C(=O)NC2CC2)c1

>  <system-name>
giant foxtail

>  <Plant response rating, Foxtail, Giant>
10

$$$$
>  <compound>
CCNC(=O)c1ccc(F)c(NC(=O)C2CC(C(C)(C)C)=NN2CC)c1 (racemic)

>  <system-name>
giant foxtail

>  <Plant response rating, Foxtail, Giant>
90

$$$$
>  <compound>
CCCCOc1cccc(NC(=O)c2cc(C(C)(C)C)nn2CC)c1

>  <system-name>
giant foxtail

>  <Plant response rating, Foxtail, Giant>
50

$$$$
>  <compound>
CCNC(=O)c1cccc(NC(=O)c2cc(C(C)(C)C)nn2CCF)c1

>  <system-name>
giant foxtail

>  <Plant response rating, Foxtail, Giant>
30

$$$$
